Source listed as the supplement of paper PMC9170038.

tested on: MS2 coat protein; experiment: apparent KD of MS2 coat protein; designed switch direction (-1 OFF switch, 1 ON switch): 1; higher = weaker reporter binding; conditions: input ligand: none
Measured apparent KD of MS2 coat protein, listed per entry.

| seq text | apparent KD of MS2 coat protein |
| --- | --- |
| GUUACAUGAGGAUCACCCAUGUAUGUGUGGGAGUAAGUGUCUUAGGAUAUCUGUUAUUUAACUUAAGAGAAGGAAGAUUGUUGU [JMF's solution 43] (Eterna round: R96, puzzle: Same State NG 3) | 105 nM |

// next entry
Exercise: Can you share its apparent KD of MS2 coat protein? I mean this sequence: GCCAACUAAUGAGGAUAUGGCACCUUAUUGGUGCCAGAAGGCAUGUCAAUUGACAUGAGGAUCACCCAUGUAUUAUAGUUGGCA [Fiskers NG1ss - 33] (Eterna round: R96, puzzle: Same State NG 1)
Key: 405 nM

###

// reported apparent KD of K4 kissing-loop reporter for each item listed
tested on: K4 kissing-loop RNA reporter; assay: apparent KD of K4 kissing-loop reporter; higher = weaker reporter binding; conditions: Eterna round: R107; input ligand: arginine 13.2 mM;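 also: bound reporter read as fluorescence of individual clusters on recovered sequencing chips by microscopy, with normalized cluster intensities fitted with a binding model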
Give the quantity in nM, number only.

Below: 2 sequences and their reported apparent KD of K4 kissing-loop reporter.
| seq text | uom | apparent KD of K4 kissing-loop reporter |
| --- | --- | --- |
| UCCUCGAAUCGACCUCGAAAGAGGAUGGAUACCAGUCUUGAUAAAGACCCUUGGCAGCCAGUGAUGUUGGAACGAGGUAAAUAAA [#SwitchBubble 19 #K4Late] | nM | 365 |
| GCCGUACGCAUGGAUACCAGACAACCAUUCUAAAUUUUGUGUCCGGUAGUGAUGUUACCUGUCCCUUGGCAGCCAUGCGUACGGC | nM | 261 |

Exercise: Observed apparent KD of K4 kissing-loop reporter on K4 kissing-loop RNA reporter for UUAGUUGAAAGUGAUACCAGACAAGUUAAGAGAAGAAAUUAAGUUGGAGUGAUGUUCCAAGUCCCUUGGCAGCACAUUGUAAUUU [Same State Theophylline B GF12] , please.
Key: 211

Exercise: Form field: apparent KD of K4 kissing-loop reporter recorded for AGGUGAGACUGAAGGAGCGAUCGCGCCAGUGAUGUUGGUGAGCAUGACAAAGUCAUGCACGAUCAGGUAGGUCGCAGUCUUACUC [Omei KL Arginine B SS B v2] with K4 kissing-loop RNA reporter (enter value)
Key: 156

###

test system: MS2 coat protein; experiment: apparent KD of MS2 coat protein; higher = weaker reporter binding; conditions: Eterna round: R107; input ligand: theophylline 20 uM
Recorded apparent KD of MS2 coat protein values for a group of sequences are listed next.
Could you write the number and then its unit?

| seq text | data value |
| --- | --- |
| AAGUGGCACGGAAGGAGCGAGUUUACCUAGAUAACAUGAGGAUCACCCAUGUAUAAUGGGACUCAGGUAGGUCGCCGUUGUCACU [#29 Same State - Arginine B] | 0.051 µM |
| UUAAAUGUGACGGAUACCAGCGUGUUGUAGAACAUGAGGAUCACCCAUGUAGUGAUCAUGCGCCCUUGGCAGCUGGUAUGUUUGA [7.aA] | 0.543 µM |
| UAUAUAUGGAUGGAUACCAGCAGAGAAAACGUUUAUCCUAACAUGAGGAUCACCCAUGUAUGCCCUUGGCAGCUGUUUAUAUAUA [8.J] | 0.0339 µM |
| AAAACUCAUGGCUUAUAUCCGUGUCUCGAAGGAGCGUACAGCGGUACAGGUAGGUCGCGAGACAUGAGGAUCACCCAUGUGUAAA [XArg-A 20 V1&2 original #dotplot2>1] | 0.119 µM |
| AAAAGAGGUGGAAGGAGCGGGAGACAUGAGGAUCACCCAUGUGAUGUUACGAAAGGUUCAGCCCAGGUAGGUCGCCAUGUCGAAA [zczzmullin] | 0.268 µM |

Exercise: Consider the sequence shown here: ACGUAAUGCAGAAGGAGCGUCAUUCUCUUACAUGAGGAUCACCCAUGUUACAUGGUUUUAUGACAGGUAGGUCGCUGAAGUACGA [JR_SSArginiB_Sub004] What is its recorded apparent KD of MS2 coat protein?
Key: 0.122 µM

Exercise: Returns the measured apparent KD of MS2 coat protein for the input sequence. Input: AUUAAAAGUUGUGAUACCAGACGAACAUGAGGAUCACCCAUGUAACUUUUAGGUGUUGUAGUCCCUUGGCAGCACUAUGUAGUUA [JR_SSTheophyB_Sub012]
Key: 0.0492 µM

Exercise: // apparent KD of MS2 coat protein lookup, key: AAUAACAUGAGGAUCACCCAUGUAAAAGAUACCAGAGUGAUGAUCCUCCCUUGGCAGCUUAAUAACGCUAUUGGAAACAAUAGCG [Mat - Same State Theophlline A - Mod of Eli - D7]
Key: 0.158 µM
